// provenance: patent US20060287319A1

# Tested on: MT-2 cells
# RUN_CONDITIONS: read-out: Cytotoxicity CC50 (μM) (M ± SD); MT-2 cells
# Description: Detection of in vitro cytotoxicity. The in vitro cytotoxicity of compounds for MT-2 cells was measured by a colorimetric method using XTT tetrazolium dye as previously described (21). Briefly, 100 μl of a compound at a graded concentration was added to equal volume of cells (5×10^5/ml) in a well of 96-well plates. […] Four hours later, the soluble intracellular formazan was quantitated colorimetrically at 450 nm with a reference at 570 nm.
REPORTED_ENDPOINT: CC50 (µM)

compound="O=C(O)c1cccc(-c2ccc(/C=C3\\SC(=S)N(c4ccc(Cl)cc4Cl)C3=O)o2)c1 [NB231]" reported_endpoint=CC50 qualifier_symbol== observed=124
compound="Cc1ccc(N2C(=O)/C(=C/c3ccc(-c4cccc(C(=O)O)c4)o3)SC2=S)cc1 [NB230]" reported_endpoint=CC50 qualifier_symbol== observed=142
compound="O=C(O)c1cc(-c2ccc(/C=C3\\SC(=S)N(Cc4ccc(F)cc4)C3=O)o2)ccc1Cl [NB208]" reported_endpoint=CC50 qualifier_symbol== observed=54.6
compound="Cc1ccc(C(=O)O)cc1-c1ccc(/C=C2\\SC(=O)N(c3ccccc3)C2=O)o1 [NB187]" reported_endpoint=CC50 qualifier_symbol== observed=363
compound="O=C(O)c1cc(-c2ccc(/C=C3\\SC(=O)N(c4cccc(Cl)c4)C3=O)o2)ccc1Cl [NB139]" reported_endpoint=CC50 qualifier_symbol== observed=239
compound="O=C(O)c1cccc(-c2ccc(/C=C3\\SC(=S)N(c4cccc(F)c4)C3=O)o2)c1 [NB147]" reported_endpoint=CC50 qualifier_symbol== observed=92.3
compound="O=C(O)c1cccc(-c2ccc(/C=C3\\SC(=O)N(c4ccccc4)C3=O)o2)c1 [NB158]" reported_endpoint=CC50 qualifier_symbol=> observed=102
compound="COC(=O)CN1C(=O)S/C(=C\\c2ccc(-c3cc(C(=O)O)ccc3Cl)o2)C1=O [NB234]" reported_endpoint=CC50 qualifier_symbol=> observed=379

----------
Each entry below lists one item and its recorded EC50 value.
# System: HIV-1 IIIB
# RUN_CONDITIONS: read-out: EC50 (μM) (M ± SD) for inhibition of p24; HIV-1 IIIB, MT-2 cells
REPORTED_ENDPOINT: EC50 (µM)

smiles_data=O=C(O)c1cc(-c2ccc(/C=C3\SC(=O)N(Cc4ccc(F)cc4)C3=O)o2)ccc1Cl experimental_system="HIV-1 IIIB" reported_endpoint=EC50 qualifier_symbol=> observed=100
smiles_data=COc1ccc(N2C(=O)/C(=C/c3ccc(-c4cccc(C(=O)O)c4)o3)SC2=S)cc1 experimental_system="HIV-1 IIIB" reported_endpoint=EC50 qualifier_symbol== observed=0.779
smiles_data=O=C(O)CN1C(=O)/C(=C/c2ccc(-c3cc(C(=O)O)ccc3Cl)o2)SC1=S experimental_system="HIV-1 IIIB" reported_endpoint=EC50 qualifier_symbol=> observed=100
smiles_data=O=C(O)c1cc(-c2ccc(/C=C3\SC(=O)N(Cc4ccccc4)C3=O)o2)ccc1Cl experimental_system="HIV-1 IIIB" reported_endpoint=EC50 qualifier_symbol=> observed=100
smiles_data=CCN1C(=O)S/C(=C\c2ccc(-c3cc(C(=O)O)ccc3Cl)o2)C1=O experimental_system="HIV-1 IIIB" reported_endpoint=EC50 qualifier_symbol=> observed=100
smiles_data=CN1C(=O)/C(=C/c2ccc(-c3cccc(C(=O)O)c3)o2)SC1=S experimental_system="HIV-1 IIIB" reported_endpoint=EC50 qualifier_symbol== observed=0.667
smiles_data=C=CCN1C(=O)/C(=C/c2ccc(-c3cc(C(=O)O)cc(C(=O)O)c3)o2)SC1=S experimental_system="HIV-1 IIIB" reported_endpoint=EC50 qualifier_symbol=> observed=100
smiles_data=COc1ccccc1N1C(=O)/C(=C/c2ccc(-c3cccc(C(=O)O)c3)o2)SC1=S experimental_system="HIV-1 IIIB" reported_endpoint=EC50 qualifier_symbol== observed=2.65
smiles_data=O=C1NC(=S)S/C1=C\c1ccc(-c2cccc(C(=O)O)c2)o1 experimental_system="HIV-1 IIIB" reported_endpoint=EC50 qualifier_symbol=> observed=100
smiles_data=O=C(O)c1cc(-c2ccc(/C=C3\SC(=O)N(c4cccc(Cl)c4)C3=O)o2)ccc1Cl experimental_system="HIV-1 IIIB" reported_endpoint=EC50 qualifier_symbol=> observed=100
smiles_data=CCN1C(=O)/C(=C/c2ccc(-c3cccc(C(=O)O)c3)o2)SC1=S experimental_system="HIV-1 IIIB" reported_endpoint=EC50 qualifier_symbol== observed=0.501
smiles_data=O=C1/C(=C/c2ccc(-c3cccc(Cl)c3)o2)SC(=S)N1c1ccccc1 experimental_system="HIV-1 IIIB" reported_endpoint=EC50 qualifier_symbol=> observed=100
smiles_data=O=C(O)c1cc(-c2ccc(/C=C3\SC(=S)N(Cc4ccc(F)cc4)C3=O)o2)ccc1Cl experimental_system="HIV-1 IIIB" reported_endpoint=EC50 qualifier_symbol== observed=1.84
smiles_data=O=C(O)c1cccc(-c2ccc(/C=C3\SC(=S)N(C4CCCCC4)C3=O)o2)c1 experimental_system="HIV-1 IIIB" reported_endpoint=EC50 qualifier_symbol== observed=0.218
smiles_data=O=C(O)c1cccc(-c2ccc(/C=C3\SC(=S)N(c4cccc(F)c4)C3=O)o2)c1 experimental_system="HIV-1 IIIB" reported_endpoint=EC50 qualifier_symbol== observed=10.4
smiles_data=Cc1ccc(C(=O)O)cc1-c1ccc(/C=C2\SC(=S)NC2=O)o1 experimental_system="HIV-1 IIIB" reported_endpoint=EC50 qualifier_symbol=> observed=100
smiles_data=O=C(O)c1cc(-c2ccc(/C=C3\SC(=S)N(C4CCCCC4)C3=O)o2)ccc1Cl experimental_system="HIV-1 IIIB" reported_endpoint=EC50 qualifier_symbol== observed=0.087
smiles_data=C#CCN1C(=O)S/C(=C\c2ccc(-c3ccc(Cl)c(C(=O)O)c3)o2)C1=O experimental_system="HIV-1 IIIB" reported_endpoint=EC50 qualifier_symbol=> observed=100
smiles_data=Cc1ccc(NC(=O)CN2C(=O)S/C(=C\c3ccc(-c4ccc(Cl)c(C(=O)O)c4)o3)C2=O)cc1 experimental_system="HIV-1 IIIB" reported_endpoint=EC50 qualifier_symbol=> observed=100
smiles_data=C=CCN1C(=O)/C(=C/c2ccc(-c3cccc(C(=O)O)c3C)o2)SC1=S experimental_system="HIV-1 IIIB" reported_endpoint=EC50 qualifier_symbol== observed=0.984
smiles_data=O=C(O)c1cccc(-c2ccc(/C=C3\SC(=O)N(c4ccccc4)C3=O)o2)c1 experimental_system="HIV-1 IIIB" reported_endpoint=EC50 qualifier_symbol=> observed=100
